- target: human glucagon receptor (human, UniProt P47871 26-477)
- Sequence (P47871 26-477): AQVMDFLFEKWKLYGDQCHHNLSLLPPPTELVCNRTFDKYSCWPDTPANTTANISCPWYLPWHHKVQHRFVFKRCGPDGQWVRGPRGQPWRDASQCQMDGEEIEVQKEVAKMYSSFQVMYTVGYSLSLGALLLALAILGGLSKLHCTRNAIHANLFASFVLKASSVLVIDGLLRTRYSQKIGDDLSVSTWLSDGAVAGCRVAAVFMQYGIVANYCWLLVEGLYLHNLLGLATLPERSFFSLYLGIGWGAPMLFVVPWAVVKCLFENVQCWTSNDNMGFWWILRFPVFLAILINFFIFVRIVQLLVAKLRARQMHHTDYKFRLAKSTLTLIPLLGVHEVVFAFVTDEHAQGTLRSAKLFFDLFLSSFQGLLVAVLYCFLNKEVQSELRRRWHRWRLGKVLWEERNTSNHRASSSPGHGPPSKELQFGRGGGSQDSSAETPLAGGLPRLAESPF
- method-notes: cell-based or functional assay

binder: HXQGTFTSDYSKYLDSRRAQDFVQWLMNTKRNRNNIAC (Aib at position 2; C7 = Cys(Oxa4-cholesterol) at position 38; C-terminal amide) [OXM216]
GCGR + 10% plasma (nM): 12

binder: HSQGTFTSDYSKYLDSRRAQDFVQWLMNTKRNRNNIAK (D-Ser at position 2; K(palmitoyl) at position 38; C-terminal amide) [OXM110]
GCGR + 10% plasma (nM): 6.9

binder: HXQGTFTSDYSKYLDSRRAQDFVQWLMNTKRNRNNIAK (Aib at position 2; K(palmitoyl) at position 38; C-terminal amide) [OXM177]
GCGR + 10% plasma (nM): 3

binder: HSQGTFTSDYSKYLDSRRAQDFVQWLMNTKRNRNNIAC (D-Ser at position 2; C7 = Cys(Oxa4-cholesterol) at position 38; C-terminal amide) [OXM115]
GCGR + 10% plasma (nM): 0.64
